target: Thrombin (Homo sapiens (Human))
pIC50: −log10 of the molar value.
# pIC50 per entry

>  <Molecule>
CN1CCC(COc2cc(CNc3cccc4[nH]nc(Cl)c34)ccn2)CC1

>  <Target Or Test System>
Thrombin (Homo sapiens (Human))

>  <Result>
< 4.40

$$$$

Q: pIC50 of Nc1ncc(Cl)c2cc(NCc3ccnc(OCC4CCn5ccnc5C4)c3)ccc12 (single isomer, unassigned) on Thrombin (Homo sapiens (Human))?
Result: 4.40 to 5.00

Q: Tell me reported pIC50 for `CN1CCC(COc2cc(CNc3nccc4c(N)ccnc34)ccn2)CC1` , tested with Thrombin (Homo sapiens (Human)).
Result: < 4.40

Q: Requested read-out pIC50, target or system Thrombin (Homo sapiens (Human)), entry `CC(C)N1C[C@H]2C[C@@H]1CN2CCc1ccc(CNc2ccc3c(N)ncc(Cl)c3c2)c(F)c1`
Result: < 4.40

Q: Identify the measured pIC50 of `CN1CCC(OCc2ccc(CNc3ccc4c(N)nccc4c3)cc2)CC1` for Thrombin (Homo sapiens (Human)).
Result: 5.00 to 5.52

Q: Give the reported pIC50 for Nc1nccc2cc(NCc3ccc(OCC4CCn5ccnc5C4)nc3)ccc12 (centres unmarked) (system: Thrombin (Homo sapiens (Human))).
Result: 5.00 to 5.52

Q: GET /values?readout=pIC50&system=Thrombin (Homo sapiens (Human))&item= `CN1C[C@H](COc2cc(CNc3cccc4c(N)nccc34)ccn2)OC1=O`
Result: < 4.40

Q: // lookup pIC50 | system=Thrombin (Homo sapiens (Human)) | key= `CN1CCC(OCc2ccc(CNc3ccc4cnccc4c3)cc2)CC1`
Result: < 4.70

---

biological target: FXa (Homo sapiens (Human))
Sequence (P00742 235-488): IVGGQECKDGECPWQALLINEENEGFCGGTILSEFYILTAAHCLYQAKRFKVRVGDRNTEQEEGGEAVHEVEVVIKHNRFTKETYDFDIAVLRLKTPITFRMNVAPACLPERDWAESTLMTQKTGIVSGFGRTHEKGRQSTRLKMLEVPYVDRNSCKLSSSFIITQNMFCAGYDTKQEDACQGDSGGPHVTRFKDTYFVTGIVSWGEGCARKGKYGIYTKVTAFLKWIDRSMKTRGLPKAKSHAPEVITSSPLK
Sequence (P00742 41-179 partner): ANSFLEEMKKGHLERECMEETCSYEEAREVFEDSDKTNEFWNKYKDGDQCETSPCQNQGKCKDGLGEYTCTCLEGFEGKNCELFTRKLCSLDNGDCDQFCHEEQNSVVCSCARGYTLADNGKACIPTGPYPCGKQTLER
Readout Name: IC50

Q: Request body: readout IC50, system FXa (Homo sapiens (Human)), query CN1CCC(Oc2ccc(CNc3cccc4c(N)nccc34)cc2)CC1 [Example 1002] . Return the value.
Result: 10 to 40 µM

---

biological target: Plasma Kallikrein (Homo sapiens (Human), UniProt P03952); assay: Determination of related protease inhibition: Plasma Kallikrein (fluorogenic substrate at Km); conditions: 25° C., read-out: IC50 (human PKal)
Sequence (P03952 391-638): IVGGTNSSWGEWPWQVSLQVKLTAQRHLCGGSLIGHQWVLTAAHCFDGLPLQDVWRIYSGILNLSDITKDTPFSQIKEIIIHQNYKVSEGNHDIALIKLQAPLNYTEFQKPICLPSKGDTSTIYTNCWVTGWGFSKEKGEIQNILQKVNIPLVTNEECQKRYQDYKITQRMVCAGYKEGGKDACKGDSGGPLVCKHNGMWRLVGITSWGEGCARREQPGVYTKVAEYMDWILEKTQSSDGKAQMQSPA
Sequence (P03952 20-390 partner): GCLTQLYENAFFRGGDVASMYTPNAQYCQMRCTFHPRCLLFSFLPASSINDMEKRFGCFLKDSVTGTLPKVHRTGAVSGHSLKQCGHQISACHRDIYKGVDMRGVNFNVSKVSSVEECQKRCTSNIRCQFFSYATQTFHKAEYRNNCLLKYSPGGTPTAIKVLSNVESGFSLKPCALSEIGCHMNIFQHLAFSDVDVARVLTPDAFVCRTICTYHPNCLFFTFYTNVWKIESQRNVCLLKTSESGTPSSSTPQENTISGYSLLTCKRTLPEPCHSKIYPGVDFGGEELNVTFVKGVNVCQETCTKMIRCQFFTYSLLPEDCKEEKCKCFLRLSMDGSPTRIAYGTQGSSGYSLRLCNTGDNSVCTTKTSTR
Readout Name: IC50

Example cases with answers are listed next.
>  <Compound>
Nc1ncc(Cl)c2cc(NCc3ccc(N4CCc5nccn5CC4)nc3)ccc12

>  <Result>
10 to 40 µM

$$$$
>  <Compound>
CN1CCC(CNc2ccc(CNc3ccc4cncc(N5CCCCC5)c4c3)cn2)CC1

>  <Result>
> 40 µM

$$$$
>  <Compound>
Nc1nccc2c(NCc3ccc(NCCc4nccn4C(F)F)nc3)cccc12

>  <Result>
> 40 µM

$$$$
>  <Compound>
Nc1ncc(Cl)c2cc(NCc3ccc(N4CCn5ncc(O)c5C4)nc3)ccc12

>  <Result>
> 40 µM

$$$$
>  <Compound>
CN1CCC(CNc2ccc(CNc3cc4ccnc(N)c4cn3)cn2)CC1

>  <Result>
3 to 10 µM

$$$$

Q: Quick one: IC50 for CC(C)N1CC2CCC(C1)C2COc1cc(CNc2cccc3c(N)nccc23)ccn1 (centres unmarked) ?
Result: > 4 µM

Q: Sample `Cc1cc2c(NCc3ccc(N4CCn5c(nnc5C(F)F)C4)nc3)ccnc2[nH]1` — what was its IC50?
Result: > 40 µM

Q: Given the entry Nc1ncc(Cl)c2cc(NCc3ccnc(OCC4CCn5ccnc5C4)c3)ccc12 (single isomer, unassigned) [Example 4439] , report its measured IC50.
Result: 10 to 40 µM

Q: Please give the measured IC50 for this compound: CN1CC2CCC(C1)C2COc1cc(CNc2ccc3c(N)nccc3c2)ccn1 (centres unmarked)
Result: 3 to 10 µM

Q: Give its IC50 value. Item: `Nc1ncc(Cl)c2cc(NCc3ccc(N4CCn5ccnc5C4)nc3)ccc12`
Result: > 40 µM

Q: Give its IC50 value. Item: Nc1nccc2c(NCc3ccc(N4Cc5nccn5CC4CO)nc3)cccc12 (centres unmarked)
Result: > 40 µM

Q: What does the record list as IC50 for Nc1nccc2c(NCc3ccc(OCC4CCn5ccnc5C4)nc3)cccc12 (single isomer, unassigned) [Example 1029] ?
Result: 10 to 40 µM

Q: Give its IC50 value. Item: `Cc1nnc(-c2ccc(NCc3ccnc(OCC4CCN(C)CC4)c3)cc2)o1`
Result: > 100 µM

---

Target: Plasma Kallikrein (Homo sapiens (Human))
Assay: Determination of related protease inhibition: Plasma Kallikrein (fluorogenic substrate at Km)
Conditions: 25° C., read-out: IC50 (human PKal)
From the text: Determination of Related Protease Inhibition […]
pIC50: −log10 of the molar value.
Readout Name: pIC50

Before answering, review these 3 worked examples.
>  <Compound>
COc1nnc2n1CCN(c1ccc(CNc3cccc4c(N)nccc34)cn1)C2

>  <pIC50>
< 4.40

$$$$
>  <Compound>
Cc1n[nH]c2c1CCC2Nc1ccc(CNc2cccc3c(N)nccc23)cn1 (centres unmarked)

>  <pIC50>
4.40 to 5.00

$$$$
>  <Compound>
CN1CCC(COc2cc(CNc3cnc4[nH]cc(C#N)c4c3)ccn2)CC1

>  <pIC50>
< 4.00

$$$$

Q: What measured pIC50 goes with `Nc1nccc2c(NCc3ccc(N4CCn5ccnc5C4)nc3)cccc12` ?
Result: < 4.40

Q: Item under review: `Cc1cc2c(NCc3ccc(OCC4CCN(C)CC4)nc3)ccnc2[nH]1` . Reported pIC50?
Result: < 4.40

---

Assay: Pharmacokinetics following a single intravenous dose and a single oral dose in male Sprague-Dawley rats (oral bioavailability, half-life)
Assay type: in vivo
Details: rat, plasma, 10% DMSO/10% Cremophor EL/80% SWFI, read-out: F % (oral bioavailability)
Method: Pharmacokinetic studies of the compounds in Table 16 were performed to assess the pharmacokinetics following a single intravenous dose and a single oral dose in male Sprague-Dawley rats. Two rats were given a single intravenous dose of 1 mL/kg of a nominal 1 mg/mL (1 mg/kg) composition of test compound in 10% DMSO/10% Cremophor EL/80% SWFI vehicle. […] Following collection, blood samples were centrifuged and the plasma fraction analysed for concentration of test compound by LCMS. […]
Readout Name: bioavailability (%)

>  <Compound>
Nc1nccc2c(NCc3ccc(N4CCn5c(nnc5C(F)F)C4)nc3)cccc12

>  <Quantitative Readout>
32.1

$$$$
>  <Compound>
CC(C)N1C[C@@H]2C[C@H]1CN2CCc1ccc(CNc2cccc3c(N)nccc23)c(F)c1 (stereo in doubt)

>  <Quantitative Readout>
6.8

$$$$
>  <Compound>
FC(F)c1nnc2n1CCN(c1ccc(CNc3ccnc4[nH]c(Cl)cc34)cn1)C2

>  <Quantitative Readout>
25

$$$$
>  <Compound>
CN1CCC(COc2cc(CNc3cccc4c(N)nccc34)ccn2)CC1

>  <Quantitative Readout>
13.6

$$$$
>  <Compound>
CN1CCC(OCc2ccc(CNc3cccc4c(N)nccc34)cc2)CC1

>  <Quantitative Readout>
15.8

$$$$
>  <Compound>
Cc1cc(N2CCn3c(nnc3C(F)(F)F)C2C)ncc1CNc1cccc2c(N)nccc12 (single isomer, unassigned)

>  <Quantitative Readout>
79.4

$$$$
>  <Compound>
CC(C)N1CCC(COc2cc(CNc3cccc4c(N)nccc34)ccn2)CC1

>  <Quantitative Readout>
8.3

$$$$
>  <Compound>
CN1CCC(COc2cc(CNc3ccc4c(N)ncc(Cl)c4c3)ccn2)CC1

>  <Quantitative Readout>
3

$$$$

(1) CN1CCC(OCc2ccc(CNc3ccc4c(N)nccc4c3)c(F)c2)CC1
(2) CN1CCC(CNc2ccc(CNc3ccnc4[nH]c(Cl)cc34)cn2)CC1
Q: Smaller bioavailability value, 1 vs 2 ? Record your answer as the label of the chosen record.
Result: 2

---

These records show IC50 for Human Factor XIIa (Homo sapiens (Human), UniProt P00748).

Some solved cases for reference:
>  <Compound>
Nc1nccc2cc(NCc3ccnc(N4CCn5c(nnc5C(F)(F)F)C4)c3)ccc12 [Example 4471]

>  <IC50>
10 to 40 µM

$$$$
>  <Compound>
CN1CCN(C(=O)Cc2ccc(CNc3ccc4c(N)nccc4c3)cc2)CC1 [Example 2179]

>  <IC50>
1 to 3 µM

$$$$

Q: Reported IC50 for COC(=O)c1c[nH]c2nccc(NCc3ccc(NCC4CCN(C)CC4)nc3)c12 [Example 1248] : what is it?
Result: 10 to 40 µM

Q: Return reported IC50; argument: Nc1nccc2c(CCc3ccnc(OCC4CCn5ccnc5C4)c3)cccc12 (centres unmarked) [Example 4452]
Result: 0.3 to 1 µM

Q: IC50 for Nc1nccc2c(N3CCCC3c3ccc(N4CCn5c(nnc5C(F)(F)F)C4)nc3)cccc12 (single isomer, unassigned) [Example 10004] ?
Result: 0.3 to 1 µM

Q: Could you share which IC50 value was measured for Cc1cc(N2CCn3c(nnc3C(F)(F)F)C2C)ncc1CNc1ccnc2[nH]c(Cl)cc12 (single isomer, unassigned) [Example 1315] ?
Result: 10 to 40 µM

Q: What value of IC50 has been reported for the following compound? Cn1ncc2c1CCN(c1ccc(CNc3cccc4c(N)nccc34)cn1)C2 [Example 1286]
Result: 0.3 to 1 µM

Q: Can you share its IC50? I mean this compound: CC(C)N1CC2(CN(Cc3ccc(CNc4ccc5c(N)nccc5c4)c(F)c3)C2)C1 [Example 1037]
Result: 0.3 to 1 µM
